TESTED_TARGET: Rat brain protein farnesyltransferase (Rattus norvegicus, UniProt Q02293+Q04631)
Construct: Rat brain protein farnesyltransferase activity is measured; from tissue; host or cells: rat brain
ASSAY_SUMMARY: % inhibition of farnesylation, scintillation proximity assay with biotin-K Ras B fragment
Format: biochemical
RUN_CONDITIONS: read-out: % inhibition at 0.1 μM (*); Table 6; * footnote 0.1 μM (title: 0.1 mM)
Experimental: The ability of the compounds of the invention to inhibit protein farnesyltransferase or protein geranylgeranyltransferase can be measured according to the method of Moores, et al., J. Biol. Chem. 266: 14603 (1991) or the method of Vogt, et al., J. Biol. Chem. 270:660-664 (1995). […] In addition, in vitro inhibition of protein farnesyltransferase may be measured by the following procedure. […] The % inhibition of protein farnesyltransferase was determined for representative compounds of the invention.
Structures can show the parent of a compound that is named as a salt.
Kind request: treat 90% as inclusive, so inhibition at 0.1 µM at 90% or higher is yes (1), anything lower is no (0).

{"COMPOUND": "CSCC[C@H](NC(=O)c1ccc(COCC2CCCN2C(=O)OCc2ccccc2)cc1-c1ccccc1C)C(=O)O (stereo partly drawn) [Example 1128, lithium salt]", "TESTED_TARGET": "Rat brain protein farnesyltransferase (Rattus norvegicus, UniProt Q02293+Q04631)", "ASSIGNED_LABEL": "no (0)"}

Asked: Threshold query (inhibition at 0.1 µM >= 90%) on CSCC[C@H](NC(=O)c1ccc(COCc2ccc(CO)cc2)cc1-c1ccccc1C)C(=O)O [Example 1045, lithium salt]
Given back: no (0)

Asked: Threshold query (inhibition at 0.1 µM >= 90%) on `CSCC[C@H](NC(=O)c1ccc(CCC(=O)OC2CCCCC2)cc1-c1ccccc1C)C(=O)O`
Given back: yes (1)

Asked: Threshold query (inhibition at 0.1 µM >= 90%) on CSCC[C@H](NC(=O)c1ccc(CO[C@H](COCC2COC(C)(C)O2)CC2CCCCC2)cc1-c1ccccc1C)C(=O)O (stereo partly drawn) [Example 1346, Lithium Salt]
Given back: yes (1)

Asked: Threshold query (inhibition at 0.1 µM >= 90%) on CCCCC(OCc1ccc(C(=O)N[C@@H](CCSC)C(=O)O)c(-c2ccccc2C)c1)c1sc(C)nc1C (stereo partly drawn) [Example 1098, lithium salt]
Given back: no (0)

Asked: Threshold query (inhibition at 0.1 µM >= 90%) on CSCC[C@H](NC(=O)c1ccc(COC(c2ccccc2)C2CCOCC2)cc1-c1ccccc1C)C(=O)O (stereo partly drawn) [Example 1283, lithium salt]
Given back: no (0)

Asked: Threshold query (inhibition at 0.1 µM >= 90%) on CSCC[C@H](NC(=O)c1ccc(COC[C@@H](O)CC2CCCCC2)cc1-c1ccccc1C)C(=O)O [Example 1314, Lithium Salt]
Given back: yes (1)

Asked: Threshold query (inhibition at 0.1 µM >= 90%) on CSCC[C@H](NC(=O)c1ccc(CO[C@H](COCCC(C)(C)C)CC2CCCCC2)cc1-c1ccccc1C)C(=O)O [Example 1309, Lithium Salt]
Given back: yes (1)

Asked: Threshold query (inhibition at 0.1 µM >= 90%) on CSCC[C@H](NC(=O)c1ccc(COC(CC2CCCCC2)c2sc(C)nc2C)cc1-c1ccccc1C)C(=O)O (stereo partly drawn) [Example 1096, lithium salt]
Given back: no (0)

Asked: Threshold query (inhibition at 0.1 µM >= 90%) on CCCCC(OCc1ccc(C(=O)N[C@@H](CCSC)C(=O)O)c(-c2ccccc2C)c1)c1scnc1C (stereo partly drawn) [Example 1095, lithium salt]
Given back: no (0)

* * *

TESTED_TARGET: Rat brain protein farnesyltransferase (Rattus norvegicus, UniProt Q02293+Q04631)
Construct: Rat brain protein farnesyltransferase activity is measured; from tissue; host or cells: rat brain
ASSAY_SUMMARY: % inhibition of farnesylation, scintillation proximity assay with biotin-K Ras B fragment
Assay type: biochemical
RUN_CONDITIONS: Table 2; 1 × 10^-6 M
Below, each entry is listed alongside its reported % inhibition at 1 × 10^-6 M.
All answers are understood in %, so give the number only.

{"COMPOUND": "CSCC[C@H](NC(=O)c1ccc(CN(Cc2ccccc2)Cc2ccccc2)cc1-c1ccccc1)C(=O)O", "TESTED_TARGET": "Rat brain protein farnesyltransferase (Rattus norvegicus, UniProt Q02293+Q04631)", "% inhibition at 1 × 10^-6 M (%)": 55}
{"COMPOUND": "Cc1ccccc1-c1cc(CCc2cccc(Oc3ccccc3)c2)ccc1C(=O)N[C@@H](CC[S+](C)[O-])C(=O)O (stereo partly shown)", "TESTED_TARGET": "Rat brain protein farnesyltransferase (Rattus norvegicus, UniProt Q02293+Q04631)", "% inhibition at 1 × 10^-6 M (%)": 88}
{"COMPOUND": "CCCCN(C)N(CCC1CCCCC1)Cc1ccc(C(=O)N[C@@H](CCS(C)(=O)=O)C(=O)O)c(-c2ccccc2C)c1", "TESTED_TARGET": "Rat brain protein farnesyltransferase (Rattus norvegicus, UniProt Q02293+Q04631)", "% inhibition at 1 × 10^-6 M (%)": 22}

Asked: Request the reported % inhibition at 1 × 10^-6 M associated with CSCCC(NC(=O)c1ccc(CNC(CO)c2ccccc2)cc1-c1ccccc1)C(=O)O (stereo not shown) [Example 657]
Given back: 32

* * *

TESTED_TARGET: Rat brain protein farnesyltransferase (Rattus norvegicus, UniProt Q02293+Q04631)
Construct: Rat brain protein farnesyltransferase activity is measured; from tissue; host or cells: rat brain
ASSAY_SUMMARY: % inhibition of farnesylation, scintillation proximity assay with biotin-K Ras B fragment
Assay type: biochemical
RUN_CONDITIONS: read-out: % inhibition at 0.01 μM (**)
Structures can show the parent of a compound that is named as a salt.
VALUE_KIND: inhibition at 0.01 µM (%)
All answers are understood in %, so give the number only.

Look over these answered cases.
{"COMPOUND": "CSCC[C@H](NC(=O)c1ccc(COC(CCC2CCCCC2)c2ccns2)cc1-c1ccccc1C)C(=O)O (stereo partly drawn) [Example 1223, lithium salt]", "TEST_RESULT": 91}
{"COMPOUND": "CCCCC(OCc1ccc(C(=O)N[C@@H](CCSC)C(=O)O)c(-c2ccccc2C)c1)c1cccc(Cl)c1 (stereo partly drawn) [Example 1206, lithium salt]", "TEST_RESULT": 63}

As a next step, examine the compound that follows.
Asked: Request the reported inhibition at 0.01 µM associated with CSCC[C@H](NC(=O)c1ccc(COC(CCC2CCCCC2)c2ccnnc2)cc1-c1ccccc1C)C(=O)O (stereo partly drawn) [Example 1349, lithium salt]
Given back: 92

* * *

TESTED_TARGET: Rat brain protein farnesyltransferase (Rattus norvegicus, UniProt Q02293+Q04631)
Construct: Rat brain protein farnesyltransferase activity is measured; from tissue; host or cells: rat brain
ASSAY_SUMMARY: % inhibition of farnesylation, scintillation proximity assay with biotin-K Ras B fragment
Type: biochemical
RUN_CONDITIONS: read-out: % inhibition at 1 × 10^-6 M; Table 2; 1 × 10^-6 M
Where a name gives a salt, the structure may show the parent alone.
Below, each entry is listed alongside its reported inhibition at 1 µM.
All answers are understood in %, so give the number only.

Look over these answered cases.
{"COMPOUND": "CSCC[C@H](NC(=O)c1ccc(OCCCOc2ccccc2)cc1-c1ccccc1C)C(=O)O", "TESTED_TARGET": "Rat brain protein farnesyltransferase (Rattus norvegicus, UniProt Q02293+Q04631)", "TEST_RESULT": 98}
{"COMPOUND": "CSCC[C@H](NC(=O)c1ccc(OCCC23CC4CC(CC(C4)C2)C3)cc1-c1ccccc1C)C(=O)O", "TESTED_TARGET": "Rat brain protein farnesyltransferase (Rattus norvegicus, UniProt Q02293+Q04631)", "TEST_RESULT": 92}
{"COMPOUND": "Cc1ccccc1-c1cc(COCc2ccccc2)ccc1C(=O)N[C@@H](CCS(C)(=O)=O)C(=O)O [Example 576, lithium salt]", "TESTED_TARGET": "Rat brain protein farnesyltransferase (Rattus norvegicus, UniProt Q02293+Q04631)", "TEST_RESULT": 88}
{"COMPOUND": "CSCC[C@H](NC(=O)c1ccc(COc2nc3ccccc3s2)cc1-c1ccccc1C)C(=O)O", "TESTED_TARGET": "Rat brain protein farnesyltransferase (Rattus norvegicus, UniProt Q02293+Q04631)", "TEST_RESULT": 90}
{"COMPOUND": "CSCC[C@H](NC(=O)c1ccc(CS[C@H](CO)Cc2ccccc2)cc1-c1ccccc1)C(=O)O [Example 545, sodium salt]", "TESTED_TARGET": "Rat brain protein farnesyltransferase (Rattus norvegicus, UniProt Q02293+Q04631)", "TEST_RESULT": 88}

Asked: Request the reported inhibition at 1 µM associated with CSCC[C@H](NC(=O)c1ccc(COC2CCN(Cc3ccccc3)C2)cc1-c1ccccc1C)C(=O)O (stereo partly drawn)
Given back: 93

Asked: Request the reported inhibition at 1 µM associated with CSCC[C@H](NC(=O)c1ccc(COCC2CCOC2)cc1-c1ccccc1)C(=O)O (stereo partly drawn)
Given back: 24

Asked: Request the reported inhibition at 1 µM associated with CSCC[C@H](NC(=O)c1ccc(COCc2ccc(-c3ccc(F)cc3)o2)cc1-c1ccccc1C(F)(F)F)C(=O)O [Example 872, Lithium salt]
Given back: 74

Asked: Request the reported inhibition at 1 µM associated with CSCC[C@H](NC(=O)c1ccc(COCC(CC2CCCCC2)CC2CCCCC2)cc1-c1ccccc1C)C(=O)O [Example 889, lithium salt]
Given back: 95

Asked: Request the reported inhibition at 1 µM associated with `CSCC[C@H](NC(=O)c1ccc(COC2CCN(Cc3ccccc3)CC2)cc1-c1ccccc1C)C(=O)O`
Given back: 90

Asked: Request the reported inhibition at 1 µM associated with `CSCC[C@H](NC(=O)c1ccc(Sc2ccc3ccccc3c2)cc1-c1ccccc1C)C(=O)O`
Given back: 94

Asked: Request the reported inhibition at 1 µM associated with CCOC[C@H](CC1CCCCC1)OCc1ccc(C(=O)N[C@@H](CCSC)C(=O)O)c(-c2ccccc2C)c1 [Example 525, lithium salt]
Given back: 99

Asked: Request the reported inhibition at 1 µM associated with `CSCC[C@H](NC(=O)c1ccc(COCc2ccco2)cc1-c1ccccc1C)C(=O)O`
Given back: 94

Asked: Request the reported inhibition at 1 µM associated with `CSCC[C@H](NC(=O)c1ccc(SCCc2ccccc2)cc1-c1ccccc1C)C(=O)O`
Given back: 98

Asked: Request the reported inhibition at 1 µM associated with `CSCC[C@H](NC(=O)c1ccc(COCc2ccccc2)cc1-c1ccccc1C)C(=O)NS(=O)(=O)c1ccc(C)cc1`
Given back: 99
